# Procedure summary: Food and acidic beverage effect on bioavailability of ATR-101 tablets, 3-way crossover plasma PK study
# Format: in vivo, human
# Experimental setup: both sexes, human, plasma, po, 500 mg, Treatment A (fasting with water), single oral 500 mg; Median; read-out: tmax
Where a name gives a salt, the structure may show the parent alone.
Quantity measured: tmax (h)
Numbers only, in h.

So, CC(C)c1cccc(C(C)C)c1NC(=O)NCC1(c2ccc(N(C)C)cc2)CCCC1 [ATR-101, hydrochloride] ? Its tmax was 2

---

# Procedure summary: Food and acidic beverage effect on bioavailability of ATR-101 tablets, 3-way crossover plasma PK study
# Assay type: in vivo, human
# Experimental setup: both sexes, human, plasma, po, 500 mg, Treatment B (fed with water), single oral 500 mg; Geometric Mean; read-out: Cmax
Counter-ions that a name gives are not always drawn.
Quantity measured: Cmax
Please give the number followed by its unit.

So, CC(C)c1cccc(C(C)C)c1NC(=O)NCC1(c2ccc(N(C)C)cc2)CCCC1 [ATR-101, hydrochloride] ? Its Cmax was 1180 ng/mL
